Hi there, I'd appreciate the recorded DC50 for every entry that follows.
# measured on: androgen receptor (Homo sapiens, UniProt P10275, T878A)
# Construct: host or cells: LNCaP.FGC
# Sequence (P10275 whole entry T878A): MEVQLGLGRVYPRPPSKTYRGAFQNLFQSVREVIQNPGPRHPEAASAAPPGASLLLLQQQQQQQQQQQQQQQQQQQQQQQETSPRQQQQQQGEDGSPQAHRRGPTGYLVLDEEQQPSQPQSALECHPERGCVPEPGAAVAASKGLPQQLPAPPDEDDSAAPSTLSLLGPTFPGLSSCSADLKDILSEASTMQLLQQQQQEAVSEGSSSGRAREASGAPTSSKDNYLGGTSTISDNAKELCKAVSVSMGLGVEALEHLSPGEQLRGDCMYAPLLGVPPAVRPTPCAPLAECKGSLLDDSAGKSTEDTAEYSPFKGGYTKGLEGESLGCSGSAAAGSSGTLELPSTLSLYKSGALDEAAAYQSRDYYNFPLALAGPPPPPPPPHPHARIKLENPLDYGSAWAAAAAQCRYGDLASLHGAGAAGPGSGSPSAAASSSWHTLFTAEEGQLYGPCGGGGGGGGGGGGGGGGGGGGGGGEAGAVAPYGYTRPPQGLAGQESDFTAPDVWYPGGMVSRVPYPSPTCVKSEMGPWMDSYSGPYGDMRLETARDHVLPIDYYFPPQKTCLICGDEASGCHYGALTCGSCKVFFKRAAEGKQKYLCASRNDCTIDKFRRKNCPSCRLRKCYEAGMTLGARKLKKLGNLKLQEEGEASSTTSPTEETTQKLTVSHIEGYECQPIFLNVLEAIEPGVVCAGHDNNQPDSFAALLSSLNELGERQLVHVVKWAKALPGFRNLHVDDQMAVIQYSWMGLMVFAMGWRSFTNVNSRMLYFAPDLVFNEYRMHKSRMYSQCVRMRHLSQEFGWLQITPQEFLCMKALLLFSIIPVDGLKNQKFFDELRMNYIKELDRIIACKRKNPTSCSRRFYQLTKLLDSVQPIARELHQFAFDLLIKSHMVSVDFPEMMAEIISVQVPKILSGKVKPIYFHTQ
# Sequence (Q96SW2 whole entry partner): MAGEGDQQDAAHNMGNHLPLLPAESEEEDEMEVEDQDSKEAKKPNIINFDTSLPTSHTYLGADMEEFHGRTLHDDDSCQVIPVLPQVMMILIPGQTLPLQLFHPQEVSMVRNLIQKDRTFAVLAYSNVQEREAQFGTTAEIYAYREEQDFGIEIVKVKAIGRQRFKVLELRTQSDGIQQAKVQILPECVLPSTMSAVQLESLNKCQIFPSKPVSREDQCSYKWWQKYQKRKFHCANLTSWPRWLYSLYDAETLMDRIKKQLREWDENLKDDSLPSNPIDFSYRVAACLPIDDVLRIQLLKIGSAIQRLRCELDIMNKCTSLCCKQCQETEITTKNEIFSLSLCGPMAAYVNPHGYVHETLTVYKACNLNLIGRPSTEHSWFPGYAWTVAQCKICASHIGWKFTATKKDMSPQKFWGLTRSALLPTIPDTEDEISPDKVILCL
# assay: Androgen receptor degradation assay using Western blot analysis
# Assay type: cell-based
# condition details: read-out: AR DC50 (concentration needed for 50% AR degradation); LNCaP.FGC cells, serial 10x dilutions from 100 nM

Notebook: pull reported DC50 for androgen receptor (Homo sapiens, UniProt P10275, T878A), entry CCn1c2c(c3ccc(OC(C)CCN4CCN(c5ccc(C(=O)N[C@H]6CC[C@H](Oc7ccc(C#N)c(Cl)c7)CC6)nn5)CC4)cc31)C(=O)N(C1CCC(=O)NC1=O)C2=O (some centres unmarked)
10 to 25 nM

Record: CCn1c2c(c3ccc(OCCN4CCC5(CC4)CCN(c4ccc(C(=O)N[C@H]6CC[C@H](Oc7ccc(C#N)c(Cl)c7)CC6)nn4)CC5)cc31)C(=O)N(C1CCC(=O)NC1=O)C2=O (some centres unmarked)
< 10 nM

Record: N#Cc1ccc(O[C@H]2CC[C@H](NC(=O)c3ccc(N4CCN(CCOc5ccc6c7c(n(CC(F)F)c6c5)C(=O)N(C5CCC(=O)NC5=O)C7=O)CC4)nn3)CC2)cc1Cl (some centres unmarked)
25 to 100 nM

Record: CCn1c2c(c3ccc(OCCN4CCC5(CC4)CN(c4ccc(C(=O)N[C@H]6CC[C@H](Oc7ccc(C#N)c(Cl)c7)CC6)nn4)C5)cc31)C(=O)N(C1CCC(=O)NC1=O)C2=O (some centres unmarked)
< 10 nM

Record: CCn1c2c(c3ccc(OCCCN4CC5(CCN(c6ccc(C(=O)N[C@H]7CC[C@H](Oc8ccc(C#N)c(Cl)c8)CC7)nn6)CC5)C4)cc31)C(=O)N(C1CCC(=O)N(CO)C1=O)C2=O (some centres unmarked)
10 to 25 nM
